Here, each record is paired with measured μM substrate hydrolysed/hr data.
- assayed system: Human Lactase Phloridzin Hydrolase (hLPH) (Homo sapiens)
- Construct: endogenous in cells; host or cells: Caco-2 cells held at confluence for 21 days; trans-membrane protein extract passed through a G-25 Sephadex spin column
- Sequence (P09848 869-1927): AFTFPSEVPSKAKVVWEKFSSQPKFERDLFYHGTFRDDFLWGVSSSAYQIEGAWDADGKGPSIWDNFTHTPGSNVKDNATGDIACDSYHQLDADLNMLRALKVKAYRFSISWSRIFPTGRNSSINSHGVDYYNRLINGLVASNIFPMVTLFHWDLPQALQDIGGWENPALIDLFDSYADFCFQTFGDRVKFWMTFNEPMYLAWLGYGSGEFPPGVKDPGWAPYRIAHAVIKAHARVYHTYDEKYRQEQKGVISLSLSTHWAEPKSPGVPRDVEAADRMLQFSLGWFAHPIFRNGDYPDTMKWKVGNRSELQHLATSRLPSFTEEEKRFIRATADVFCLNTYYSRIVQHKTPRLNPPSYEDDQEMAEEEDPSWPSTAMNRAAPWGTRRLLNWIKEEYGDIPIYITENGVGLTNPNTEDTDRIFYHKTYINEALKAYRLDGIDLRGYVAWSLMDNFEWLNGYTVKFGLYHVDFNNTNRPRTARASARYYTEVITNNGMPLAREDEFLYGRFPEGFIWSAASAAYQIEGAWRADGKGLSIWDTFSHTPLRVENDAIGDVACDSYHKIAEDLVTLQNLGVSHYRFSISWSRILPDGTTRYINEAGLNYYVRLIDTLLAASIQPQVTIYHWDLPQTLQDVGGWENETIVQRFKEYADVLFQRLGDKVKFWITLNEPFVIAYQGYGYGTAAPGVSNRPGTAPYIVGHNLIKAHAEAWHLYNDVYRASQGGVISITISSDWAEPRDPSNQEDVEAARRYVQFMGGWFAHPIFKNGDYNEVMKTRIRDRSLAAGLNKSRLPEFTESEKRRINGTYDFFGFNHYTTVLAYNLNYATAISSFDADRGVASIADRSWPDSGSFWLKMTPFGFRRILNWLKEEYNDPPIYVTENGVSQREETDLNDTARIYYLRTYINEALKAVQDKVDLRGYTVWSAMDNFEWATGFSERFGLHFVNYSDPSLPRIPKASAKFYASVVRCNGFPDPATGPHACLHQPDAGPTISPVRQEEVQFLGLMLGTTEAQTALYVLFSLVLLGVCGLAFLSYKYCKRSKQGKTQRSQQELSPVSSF
- experiment notes: hLPH enzyme assay (glucoside hydrolysis by LPH extract from Caco-2 cells)
- Format: in vitro ADME
- measurement parameters: glucoside 1.0 mM, 10% LPH extract (Caco2 cell-line), 1 hour at 37° C., pH 6.0

compound	assayed system	experimental result
O=c1c(O)c(-c2ccc(O)cc2)oc2cc(O[C@@H]3O[C@H](CO)[C@@H](O)[C@H](O)[C@H]3O)cc(O)c12 [Kaempferol 7-O-glucoside]	Human Lactase Phloridzin Hydrolase (hLPH) (Homo sapiens)	0.618 μM substrate hydrolysed/hr

OC[C@H]1O[C@@H](Oc2cc3c(O)cc(O)cc3[o+]c2-c2ccc(O)cc2)[C@H](O)[C@@H](O)[C@@H]1O [Pelargonidin-3-glucoside] yielded μM substrate hydrolysed/hr of 1.272 μM substrate hydrolysed/hr

O=C(CCc1ccc(O)cc1)c1c(O)cc(O)cc1O[C@@H]1O[C@H](CO)[C@@H](O)[C@H](O)[C@H]1O [Phloridzin, reference compound] yielded μM substrate hydrolysed/hr of 0.507 μM substrate hydrolysed/hr

O=C1CC(c2ccc(O)cc2)Oc2cc(O[C@@H]3O[C@H](CO)[C@@H](O)[C@H](O)[C@H]3O)cc(O)c21 (some centres unmarked) [Naringenin-7-O-glucoside] yielded μM substrate hydrolysed/hr of 1.564 μM substrate hydrolysed/hr

O=c1cc(-c2ccc(O)cc2)oc2c([C@@H]3O[C@H](CO)[C@@H](O)[C@H](O)[C@H]3O)c(O)cc(O)c12 [Apigenin-8-C-glucoside] yielded μM substrate hydrolysed/hr of 0.685 μM substrate hydrolysed/hr

###

Here, each record is paired with measured inhibition at 150 µM data.
- assayed system: GLUT2 (Homo sapiens, UniProt P11168)
- Construct: endogenous in cells; host or cells: differentiated Caco-2 cell monolayers (ATCC)
- Sequence (P11168 1-524): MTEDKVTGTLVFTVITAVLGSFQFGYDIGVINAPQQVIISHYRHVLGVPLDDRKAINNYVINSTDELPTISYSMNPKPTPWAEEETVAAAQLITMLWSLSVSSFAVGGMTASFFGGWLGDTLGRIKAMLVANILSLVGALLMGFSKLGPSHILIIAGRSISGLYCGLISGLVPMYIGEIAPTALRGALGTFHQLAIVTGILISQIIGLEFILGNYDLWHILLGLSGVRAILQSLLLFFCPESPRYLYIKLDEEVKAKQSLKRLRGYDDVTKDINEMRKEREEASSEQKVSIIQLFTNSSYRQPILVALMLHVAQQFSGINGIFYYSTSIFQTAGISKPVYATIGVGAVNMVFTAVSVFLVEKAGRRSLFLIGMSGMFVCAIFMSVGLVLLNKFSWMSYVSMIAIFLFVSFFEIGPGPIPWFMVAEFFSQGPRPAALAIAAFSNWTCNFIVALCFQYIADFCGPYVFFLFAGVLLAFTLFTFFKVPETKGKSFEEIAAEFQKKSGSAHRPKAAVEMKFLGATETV
- experiment notes: Glucose transport inhibitor cell screening assay, 25 mM D-glucose for 30 minutes (GLUT2 inhibition)
- Format: cell-based
- measurement parameters: differentiated Caco-2 monolayer, 30 minutes, active at 150 uM
- Protocol: Human epithelial colorectal adenocarcinoma (Caco-2) cells were obtained from the American Type Culture Collection (ATCC) and cultured in Growth Medium consisting of Dulbecco's modified Eagle's medium (containing Glutamax-1, 4.5 g/L D-glucose and 25 mM 4-(2-hydroxyethyl)-1-piperazine ethanesulphonic acid (Hepes) (Invitrogen)), 10% foetal bovine serum (Sigma), 1% non-essential amino acids (Invitrogen) and 1 mM sodium pyruvate (Sigma)). […]
Hey, just the number and the unit after it is fine.

O=c1c(O)c(-c2ccc(O)c(O)c2)oc2cc(O)cc(O)c12 [Quercetin] yielded inhibition at 150 µM of 61.4%

O=c1c(-c2ccc(O)cc2)coc2cc(O)cc(O)c12 [Genistein] yielded inhibition at 150 µM of 57.7%

O=C1C[C@@H](c2ccc(O)cc2)Oc2cc(O)cc(O)c21 [Naringenin] yielded inhibition at 150 µM of 57%

O=C1C[C@@H](c2ccccc2)Oc2cc(O)cc(O)c21 [Pinocembrin] yielded inhibition at 150 µM of 48.1%

O=c1cc(-c2ccc(O)c(O)c2)oc2cc(O)cc(O)c12 [Luteolin] yielded inhibition at 150 µM of 63.2%
